- Tested on: human placental vein discs
- assayOverview: Human placental vein angiogenesis model (HPVAM): initiation and angiogenic index
- Type: cell-based
- conditionSummary: Homo sapiens; 0.01% w/v, FIG. 12b; read-out: inhibition of angiogenic growth compared with the control (mean AI without the zero points)
Please respond with reported inhibition at 0.01 % strength for every item in the list.
# value in %; strip the unit string

Name the recorded inhibition at 0.01 % strength for CCCOC(=O)c1cc(O)c(O)c(O)c1 [propyl gallate] . 28

Also, COC(=O)c1cc(O)c(O)c(O)c1 [methyl gallate] please. 52

Also, CCCCCCCCOC(=O)c1cc(O)c(O)c(O)c1 [octyl gallate] please. 83

Also, CCCCOC(=O)c1cc(O)c(O)c(O)c1 [butyl gallate] please. 74
